- TARGET DESC: T1, VEGFR-3-Fc (UniProt P35916 25-328)
- T1 construct: domain: first three Ig domains; conditioned supernatant of 293T cells; also called VEGFR-3-Fc fusion protein; not shown: Fc fragment of the pIg vector
- T1 sequence (looked up): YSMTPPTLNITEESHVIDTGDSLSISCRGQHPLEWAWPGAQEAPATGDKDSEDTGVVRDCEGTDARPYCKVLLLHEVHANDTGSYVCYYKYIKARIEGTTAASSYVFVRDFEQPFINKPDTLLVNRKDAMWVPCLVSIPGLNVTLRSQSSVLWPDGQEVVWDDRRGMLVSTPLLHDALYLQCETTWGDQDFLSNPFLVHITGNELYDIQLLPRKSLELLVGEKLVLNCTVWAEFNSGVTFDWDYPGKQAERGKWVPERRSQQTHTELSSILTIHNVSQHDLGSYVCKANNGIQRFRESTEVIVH
- ASSAY INFO: receptor-Fc IP
PARAMETER: binding result

BINDER	MEASURED RESULT
72-16 (ligand) GQNHHEVVKSIDNEWRKTQCMPREVCIDVGKEFGVATNTFFKPPCVSVYRCGGCCNSEGLQCMNTSTSYLSKTLFEITVPLSQGPKPVTISFANHTSCRCMSKLD	binds
51-15 (ligand) AHYNTEILKSIDNEWRKTQCMPIETLVDIFQEYPDEIEYIFKPSCVPLMRCGGCCNSEGLQCVPTEESNITMQIMRITVPLSQGPKPVTISFANHTSCRCMSKLD	no binding
24-11 (ligand) AHYNTEILKSIDNEWRKTQCMPREVCIDVGKEFGVATNTFFKPSCVPLMRCGGCCNSEGLQCVPTEESNITMQIMRITVPLSQGPKPVTISFLQHNKCECRPKKD	no binding
53-16 (ligand) AHYNTEILKSIDNEWRKTQCMPIETLVDIFQEYPDEIEYIFKPPCVSVYRCGGCCNSEGLQCMNTSTSYLSKTLFEITVPLSQGPKPVTISFANHTSCRCMSKLD	no binding
